subject-of-test: CSF1R (Homo sapiens, UniProt P07333)
Sequence (P07333 20-972): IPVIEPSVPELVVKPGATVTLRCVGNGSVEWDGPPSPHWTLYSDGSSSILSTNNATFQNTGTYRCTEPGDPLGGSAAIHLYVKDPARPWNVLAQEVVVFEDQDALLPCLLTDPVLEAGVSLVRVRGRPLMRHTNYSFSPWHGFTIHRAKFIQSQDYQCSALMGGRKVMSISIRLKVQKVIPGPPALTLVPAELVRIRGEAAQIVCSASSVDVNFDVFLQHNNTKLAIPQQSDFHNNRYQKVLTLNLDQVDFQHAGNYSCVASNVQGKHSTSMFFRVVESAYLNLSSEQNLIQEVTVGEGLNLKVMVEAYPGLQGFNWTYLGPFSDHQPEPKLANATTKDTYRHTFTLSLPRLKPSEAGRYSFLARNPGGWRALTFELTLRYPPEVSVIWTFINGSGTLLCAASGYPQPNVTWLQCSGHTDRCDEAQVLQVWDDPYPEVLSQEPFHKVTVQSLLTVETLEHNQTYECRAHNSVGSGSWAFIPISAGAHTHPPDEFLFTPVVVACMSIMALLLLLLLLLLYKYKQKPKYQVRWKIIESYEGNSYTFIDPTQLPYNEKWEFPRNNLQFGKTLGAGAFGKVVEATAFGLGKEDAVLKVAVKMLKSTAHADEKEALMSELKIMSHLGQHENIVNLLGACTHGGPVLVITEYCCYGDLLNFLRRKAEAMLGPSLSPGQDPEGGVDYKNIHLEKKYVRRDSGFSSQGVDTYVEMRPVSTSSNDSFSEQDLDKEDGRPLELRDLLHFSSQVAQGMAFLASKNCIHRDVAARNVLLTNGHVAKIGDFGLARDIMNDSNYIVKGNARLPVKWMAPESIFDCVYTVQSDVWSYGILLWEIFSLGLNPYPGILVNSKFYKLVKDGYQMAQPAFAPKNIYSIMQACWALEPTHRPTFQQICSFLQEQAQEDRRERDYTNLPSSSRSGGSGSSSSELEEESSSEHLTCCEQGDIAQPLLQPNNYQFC
readout-label: Kd (nM)
Provide the reading as a plain figure in nM.

Could you please provide reported Kd for CCN1CCN(c2ccc(Nc3ncnc(N(C)C(=O)Nc4c(Cl)c(OC)c(Cl)c(OC)c4Cl)n3)cc2)CC1 ? Thanks!
340
